- Assay: Acute toxicity test
- Set-up: species or system mice
- Cond: mouse, in vivo; oral administration, Litchfield-Wilcoxon method, male ICR mice; read-out: LD50

Molecule	Unit Label	LD50
CCCCC/C=C/C(=O)CCc1ccc(O)c(OC)c1 [trans-(6)-shogaol]	mg/kg	687
